# TEST_SUMMARY: Oral bioavailability in Sprague-Dawley rat at 2 mg/kg by HPLC-MS/MS analysis
# Type: ADME, organism-based
# EXPERIMENTAL_SETUP: in vivo
READOUT_KIND: bioavailability (%)
One number for each entry, in %.

{"COMPOUND_STRUCTURE": "CC(C)Nc1nc2c(C(=O)N(C)C)c(Cl)c(Cl)cc2n1C1CCN(c2ccc(OC(C)C)cc2)CC1", "READOUT_KIND": "bioavailability", "UNITS_TEXT": "%", "READOUT_VALUE": 36}
{"COMPOUND_STRUCTURE": "Cc1cccc(N2CCC(n3c(NC(C)C)nc4c(C(=O)N(C)C)c(Cl)c(Cl)cc43)CC2)c1", "READOUT_KIND": "bioavailability", "UNITS_TEXT": "%", "READOUT_VALUE": 76}
{"COMPOUND_STRUCTURE": "CC(C)Nc1nc2c(C(=O)N(C)C)c(Cl)c(Cl)cc2n1C1CCN(c2ccc(C3CCCCC3)cc2)CC1", "READOUT_KIND": "bioavailability", "UNITS_TEXT": "%", "READOUT_VALUE": 7}

Value sought for every listed compound: bioavailability.
1. CC(C)Nc1nc2c(C(=O)N(C)C)c(Cl)c(Cl)cc2n1C1CCN(c2ccc(C(C)(C)C#N)cc2)CC1
2. Cc1ccc(N2CCC(n3c(NC(C)C)nc4c(C(=O)N(C)C)c(Cl)c(Cl)cc43)CC2)cc1
3. CC(C)Nc1nc2c(C(=O)N(C)C)c(Cl)c(Cl)cc2n1C1CCN(c2ccc(C(C)(C)C)cc2)CC1
4. CC(C)Nc1nc2c(C(=O)N(C)C)c(Cl)c(Cl)cc2n1C1CCN(c2ccc(C3(C#N)CCOCC3)cc2)CC1

1. 31
2. 38
3. 39
4. 22

Cited source for all entries: ChEMBL document CHEMBL2321766
